B1: tRNA (parent)
chain: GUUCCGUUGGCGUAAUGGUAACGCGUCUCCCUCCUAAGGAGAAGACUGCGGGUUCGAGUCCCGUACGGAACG

- Variants of: B1
- METHOD NOTES: yeast fitness, log relative to wild type (ln ratio); higher = fitter; tRNA-Arg(CCU), competitive growth, 37 C, 1 M NaCl
MEASURED ATTRIBUTE: yeast fitness (ln)

[
  {
    "VARIANT DESCRIPTION": "G1A U2G C27U A43C C46U C66A A70G C71U",
    "QUANTITATIVE READOUT": -0.224
  },
  {
    "VARIANT DESCRIPTION": "U2C G6U C66U A70U",
    "QUANTITATIVE READOUT": -0.0735
  },
  {
    "VARIANT DESCRIPTION": "U2C G6U A43C C66A A69G A70U",
    "QUANTITATIVE READOUT": -0.338
  },
  {
    "VARIANT DESCRIPTION": "U2C C27U A43C C46U C66A A70U",
    "QUANTITATIVE READOUT": -0.0988
  },
  {
    "VARIANT DESCRIPTION": "G1A A43C C46U C66A A70G C71U",
    "QUANTITATIVE READOUT": -0.191
  },
  {
    "VARIANT DESCRIPTION": "G6U C27U A43C C46U A69G A70U C71U",
    "QUANTITATIVE READOUT": -0.45
  },
  {
    "VARIANT DESCRIPTION": "C27U C46U A69G A70G C71U",
    "QUANTITATIVE READOUT": -0.298
  },
  {
    "VARIANT DESCRIPTION": "U2G C27U A43C C66A A69G A70G C71U",
    "QUANTITATIVE READOUT": -0.305
  },
  {
    "VARIANT DESCRIPTION": "G1A C27U C46U C66A A69G A70G",
    "QUANTITATIVE READOUT": -0.248
  },
  {
    "VARIANT DESCRIPTION": "G1A C27U A70G C71U",
    "QUANTITATIVE READOUT": -0.11
  },
  {
    "VARIANT DESCRIPTION": "G6U A43C A70G C71U",
    "QUANTITATIVE READOUT": -0.249
  }
]
